- Tested Target: TYK2 (Homo sapiens)
- Procedure Details: TYK2 kinase inhibition (Table A1)
- Type: biochemical
pIC50: −log10 of the molar value. Counter-ions that a name gives are not always drawn.
Property Label: pIC50

a: Cc1cc(CC(=O)Nc2ccc3cc2CCc2cccc(c2)Nc2ncc(Cl)c(n2)N3)on1 [Example C30, trifluoroacetate]
b: N#Cc1ccc(C(=O)N2CCC(C(=O)Nc3ccc4cc3CCc3cccc(c3)Nc3ncc(Cl)c(n3)N4)CC2)cc1 [Example A33, trifluoroacetate]
Which gives the smaller pIC50 number: a or b ? Your choice should be expressed through its label.
a
(a: 6.87, b: 7.12)

----------
- Tested Target: human JAK2 (a.a. 828-1132) (Homo sapiens, UniProt O60674)
- Construct: JAK2 (a.a. 828-1132); His tag (N); made in house; host or cells: insect cells (baculovirus)
- Sequence (O60674 828-1132): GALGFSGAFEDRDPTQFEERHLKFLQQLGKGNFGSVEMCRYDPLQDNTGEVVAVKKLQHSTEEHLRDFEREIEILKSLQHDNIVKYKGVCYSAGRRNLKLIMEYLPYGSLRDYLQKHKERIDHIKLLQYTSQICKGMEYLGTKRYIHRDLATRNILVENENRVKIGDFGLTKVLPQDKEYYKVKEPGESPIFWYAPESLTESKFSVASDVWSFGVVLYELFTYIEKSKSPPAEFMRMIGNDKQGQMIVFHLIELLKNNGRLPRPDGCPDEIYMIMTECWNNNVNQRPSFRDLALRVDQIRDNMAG
- Procedure Details: In vitro JAK kinase assay (HTRF, phosphorylation of a biotinylated peptide), JAK2
- Assay type: biochemical
- Measurement Parameters: method AA1 (30 μM ATP) or AA2 (1000 μM ATP), not stated per value
pIC50: −log10 of the molar value. Where a name gives a salt, the structure may show the parent alone.
Property Label: pIC50

O=C(Nc1ccc2cc1CCc1cccc(c1)Nc1ncc(Cl)c(n1)N2)[C@@H]1CCCN1C(=O)Nc1ccccc1 [Example A69, trifluoroacetate]	8.11

1: CN(C)S(=O)(=O)N1CCC(CC(=O)Nc2ccc3cc2CCc2cncc(c2)Nc2ncc(Cl)c(n2)N3)CC1 [Example A96, bis(trifluoroacetate)]
2: O=C(Nc1ccc2cc1CCc1cccc(c1)Nc1ncc(Cl)c(n1)N2)C1CCN(C(=O)Cc2ccccc2)CC1 [Example A35, trifluoroacetate]
Task for the reader: decide whether 1 or 2 has the larger pIC50. Your choice should be expressed through its label.
1

----------
- Tested Target: TYK2 (Homo sapiens, UniProt P29597)
- Sequence (P29597 whole entry): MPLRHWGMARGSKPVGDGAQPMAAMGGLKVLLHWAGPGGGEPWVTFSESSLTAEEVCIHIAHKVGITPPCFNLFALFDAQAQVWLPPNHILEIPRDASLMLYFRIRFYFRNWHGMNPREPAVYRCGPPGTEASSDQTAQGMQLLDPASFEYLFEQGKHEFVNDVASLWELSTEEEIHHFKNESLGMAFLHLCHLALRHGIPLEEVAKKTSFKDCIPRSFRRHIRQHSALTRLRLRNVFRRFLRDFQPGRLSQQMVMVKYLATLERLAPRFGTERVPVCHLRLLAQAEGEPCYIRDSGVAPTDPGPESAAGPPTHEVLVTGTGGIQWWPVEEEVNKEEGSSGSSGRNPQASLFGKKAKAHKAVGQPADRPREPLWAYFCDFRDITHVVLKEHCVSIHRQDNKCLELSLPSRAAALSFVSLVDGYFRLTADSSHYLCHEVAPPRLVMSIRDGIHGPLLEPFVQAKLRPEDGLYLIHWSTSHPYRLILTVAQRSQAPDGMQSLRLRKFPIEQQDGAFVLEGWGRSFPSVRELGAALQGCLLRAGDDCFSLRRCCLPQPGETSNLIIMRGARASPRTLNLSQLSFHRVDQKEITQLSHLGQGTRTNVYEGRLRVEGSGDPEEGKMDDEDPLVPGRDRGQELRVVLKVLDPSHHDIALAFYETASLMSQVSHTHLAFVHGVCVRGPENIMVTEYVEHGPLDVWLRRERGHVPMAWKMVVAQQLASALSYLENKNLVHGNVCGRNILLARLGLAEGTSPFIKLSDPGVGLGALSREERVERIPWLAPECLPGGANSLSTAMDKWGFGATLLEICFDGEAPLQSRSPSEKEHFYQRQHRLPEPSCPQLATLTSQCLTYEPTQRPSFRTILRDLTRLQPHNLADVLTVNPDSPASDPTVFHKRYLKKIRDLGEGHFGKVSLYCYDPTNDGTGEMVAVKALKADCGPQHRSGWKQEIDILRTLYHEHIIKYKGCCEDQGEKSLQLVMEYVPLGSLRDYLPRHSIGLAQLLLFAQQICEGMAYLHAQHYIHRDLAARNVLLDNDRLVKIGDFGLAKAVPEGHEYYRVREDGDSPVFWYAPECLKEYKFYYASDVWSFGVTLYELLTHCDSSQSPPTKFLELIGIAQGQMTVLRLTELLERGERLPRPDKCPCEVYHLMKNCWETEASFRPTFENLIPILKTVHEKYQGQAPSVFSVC
- Procedure Details: TYK2 kinase inhibition (Table A1)
- Format: biochemical
- Measurement Parameters: Table D1
Recorded measurements of IC50, one per entry

Example results:
O=C(COc1ccc2cc1CCc1cncc(c1)Nc1ncc(Cl)c(n1)N2)N1CCN(C(=O)C2CCCO2)CC1 (stereo not drawn) [Example D272, bis(trifluoroacetate)]	> 400 nM
O=C(CC1CN(c2nncs2)C1)Nc1ccc2cc1CCc1cncc(c1)Nc1ncc(Cl)c(n1)N2 [Example D151, tris(trifluoroacetate)]	> 200 nM
Cc1n[nH]c(C)c1-c1cc2cc(c1)Nc1ncc(Cl)c(n1)Nc1cccc(c1)OCC2 [Example D30, bis(trifluoroacetate)]	15 nM
CC(=O)N1CCN(c2ccc3cc2CCc2cccc(c2)Nc2ncc(Cl)c(n2)N3)CC1 [Example D85, bis(trifluoroacetate)]	40 nM
O=C(COc1ccc2cc1CCc1cncc(c1)Nc1ncc(Cl)c(n1)N2)N1CCC(c2cc(-c3cccs3)[nH]n2)CC1 [Example D257, tris(trifluoroacetate)]	> 400 nM

Let us examine a further case.
Please list IC50 recorded for the compound O=C(c1cccnc1)N1CCC(CCOc2ccc3cc2CCc2cncc(c2)Nc2ncc(Cl)c(n2)N3)CC1 [Example D180, tris(trifluoroacetate)]
> 400 nM

----------
- Tested Target: human JAK2 (a.a. 828-1132) (Homo sapiens, UniProt O60674)
- Construct: JAK2 (a.a. 828-1132); His tag (N); made in house; host or cells: insect cells (baculovirus)
- Procedure Details: In vitro JAK kinase assay (HTRF, phosphorylation of a biotinylated peptide), JAK2
- Format: biochemical
- Measurement Parameters: method AA1 (30 μM ATP) or AA2 (1000 μM ATP), not stated per value
Structures can show the parent of a compound that is named as a salt.
Property Label: IC50 (nM)

Example results:
N#Cc1c(F)cccc1N1CCC(CC(=O)Nc2ccc3cc2CCc2cncc(c2)Nc2ncc(Cl)c(n2)N3)CC1 [Example A234, tris(trifluoroacetate)]	80
CN(C)S(=O)(=O)N1CCC(CC(=O)Nc2ccc3cc2CCc2cccc(c2)Nc2ncc(Cl)c(n2)N3)CC1 [Example A81, trifluoroacetate]	1.6
Cc1cc(N2CCC(CC(=O)Nc3ccc4cc3CCc3cccc(c3)Nc3ncc(Cl)c(n3)N4)CC2)no1 [Example A248, trifluoroacetate]	30

A: CC(=O)N1CCC(CC(=O)Nc2ccc3cc2CCc2cncc(c2)Nc2ncc(Cl)c(n2)N3)CC1 [Example A76, bis(trifluoroacetate)]
B: O=C(Nc1ccc2cc1CCc1cccc(c1)Nc1ncc(Cl)c(n1)N2)C1CCN(C(=O)c2ccccc2)CC1 [Example A30, trifluoroacetate]
C: O=C(Nc1ccc2cc1CCc1cccc(c1)Nc1ncc(Cl)c(n1)N2)C1CCCN(C(=O)c2ccccc2)C1 (stereo not drawn) [Example A48, trifluoroacetate]
D: COc1cc(C(=O)N2CCC(CC(=O)Nc3ccc4cc3CCc3cncc(c3)Nc3ncc(Cl)c(n3)N4)CC2)on1 [Example A215, bis(trifluoroacetate)]
E: O=C(Nc1ccc2cc1CCc1cccc(c1)Nc1ncc(Cl)c(n1)N2)[C@@H]1CCNC1 [Example A45, bis(trifluoroacetate)]
Sort (5 molecules) by IC50: min first. // ordering of labels required in reply
A, C, E, B, D
(A: 4.1 nM, C: 13 nM, E: 20 nM, B: 45 nM, D: 185 nM)

a: Cn1ccc2c(NC(=O)N3CCC(C(=O)Nc4ccc5cc4CCc4cccc(c4)Nc4ncc(Cl)c(n4)N5)CC3)cccc21 [Example A41, trifluoroacetate]
b: Cc1ccc(C(=O)N2CCC(CC(=O)Nc3ccc4cc3CCc3cncc(c3)Nc3ncc(Cl)c(n3)N4)CC2)o1 [Example A162, bis(trifluoroacetate)]
c: O=C(CC1CCN(c2nc3cccnc3o2)CC1)Nc1ccc2cc1CCc1cccc(c1)Nc1ncc(Cl)c(n1)N2 [Example A126, bis(trifluoroacetate)]
d: O=C1CCc2cccc(c2)Nc2nc(ncc2Cl)Nc2cccc1c2 [Example A5, trifluoroacetate]
e: Cc1cc(C(=O)N2CCC(CCC(=O)Nc3ccc4cc3CCc3cncc(c3)Nc3ncc(Cl)c(n3)N4)CC2)no1 [Example A125, bis(trifluoroacetate)]
Rank entries according to their IC50, from the largest number down. // ordering of labels required in reply
b, d, a, e, c
(b: 289 nM, d: 56 nM, a: 12 nM, e: 4.9 nM, c: 2.6 nM)

I: Cn1cncc1C(=O)N1CCC(CC(=O)Nc2ccc3cc2CCc2cncc(c2)Nc2ncc(Cl)c(n2)N3)CC1 [Example A134, bis(trifluoroacetate)]
II: N#Cc1ccc(C(=O)N2CCC(C(=O)Nc3ccc4cc3CCc3cccc(c3)Nc3ncc(Cl)c(n3)N4)CC2)cc1 [Example A33, trifluoroacetate]
Which gives the smaller IC50 number: I or II ? Your choice should be expressed through its label.
I

I: CCNC(=O)N1CCC(C(=O)Nc2ccc3cc2CCc2cccc(c2)Nc2ncc(Cl)c(n2)N3)CC1 [Example A59, trifluoroacetate]
II: O=C(CC1CCN(S(=O)(=O)c2ccccc2)CC1)Nc1ccc2cc1CCc1cccc(c1)Nc1ncc(Cl)c(n1)N2 [Example A205, trifluoroacetate]
Which gives the smaller IC50 number: I or II ? Your choice should be expressed through its label.
I
(I: 6.9 nM, II: 199 nM)
